Target: human Nav1.8 (Homo sapiens (Human), UniProt Q9Y5Y9)
Sequence (Q9Y5Y9 whole entry): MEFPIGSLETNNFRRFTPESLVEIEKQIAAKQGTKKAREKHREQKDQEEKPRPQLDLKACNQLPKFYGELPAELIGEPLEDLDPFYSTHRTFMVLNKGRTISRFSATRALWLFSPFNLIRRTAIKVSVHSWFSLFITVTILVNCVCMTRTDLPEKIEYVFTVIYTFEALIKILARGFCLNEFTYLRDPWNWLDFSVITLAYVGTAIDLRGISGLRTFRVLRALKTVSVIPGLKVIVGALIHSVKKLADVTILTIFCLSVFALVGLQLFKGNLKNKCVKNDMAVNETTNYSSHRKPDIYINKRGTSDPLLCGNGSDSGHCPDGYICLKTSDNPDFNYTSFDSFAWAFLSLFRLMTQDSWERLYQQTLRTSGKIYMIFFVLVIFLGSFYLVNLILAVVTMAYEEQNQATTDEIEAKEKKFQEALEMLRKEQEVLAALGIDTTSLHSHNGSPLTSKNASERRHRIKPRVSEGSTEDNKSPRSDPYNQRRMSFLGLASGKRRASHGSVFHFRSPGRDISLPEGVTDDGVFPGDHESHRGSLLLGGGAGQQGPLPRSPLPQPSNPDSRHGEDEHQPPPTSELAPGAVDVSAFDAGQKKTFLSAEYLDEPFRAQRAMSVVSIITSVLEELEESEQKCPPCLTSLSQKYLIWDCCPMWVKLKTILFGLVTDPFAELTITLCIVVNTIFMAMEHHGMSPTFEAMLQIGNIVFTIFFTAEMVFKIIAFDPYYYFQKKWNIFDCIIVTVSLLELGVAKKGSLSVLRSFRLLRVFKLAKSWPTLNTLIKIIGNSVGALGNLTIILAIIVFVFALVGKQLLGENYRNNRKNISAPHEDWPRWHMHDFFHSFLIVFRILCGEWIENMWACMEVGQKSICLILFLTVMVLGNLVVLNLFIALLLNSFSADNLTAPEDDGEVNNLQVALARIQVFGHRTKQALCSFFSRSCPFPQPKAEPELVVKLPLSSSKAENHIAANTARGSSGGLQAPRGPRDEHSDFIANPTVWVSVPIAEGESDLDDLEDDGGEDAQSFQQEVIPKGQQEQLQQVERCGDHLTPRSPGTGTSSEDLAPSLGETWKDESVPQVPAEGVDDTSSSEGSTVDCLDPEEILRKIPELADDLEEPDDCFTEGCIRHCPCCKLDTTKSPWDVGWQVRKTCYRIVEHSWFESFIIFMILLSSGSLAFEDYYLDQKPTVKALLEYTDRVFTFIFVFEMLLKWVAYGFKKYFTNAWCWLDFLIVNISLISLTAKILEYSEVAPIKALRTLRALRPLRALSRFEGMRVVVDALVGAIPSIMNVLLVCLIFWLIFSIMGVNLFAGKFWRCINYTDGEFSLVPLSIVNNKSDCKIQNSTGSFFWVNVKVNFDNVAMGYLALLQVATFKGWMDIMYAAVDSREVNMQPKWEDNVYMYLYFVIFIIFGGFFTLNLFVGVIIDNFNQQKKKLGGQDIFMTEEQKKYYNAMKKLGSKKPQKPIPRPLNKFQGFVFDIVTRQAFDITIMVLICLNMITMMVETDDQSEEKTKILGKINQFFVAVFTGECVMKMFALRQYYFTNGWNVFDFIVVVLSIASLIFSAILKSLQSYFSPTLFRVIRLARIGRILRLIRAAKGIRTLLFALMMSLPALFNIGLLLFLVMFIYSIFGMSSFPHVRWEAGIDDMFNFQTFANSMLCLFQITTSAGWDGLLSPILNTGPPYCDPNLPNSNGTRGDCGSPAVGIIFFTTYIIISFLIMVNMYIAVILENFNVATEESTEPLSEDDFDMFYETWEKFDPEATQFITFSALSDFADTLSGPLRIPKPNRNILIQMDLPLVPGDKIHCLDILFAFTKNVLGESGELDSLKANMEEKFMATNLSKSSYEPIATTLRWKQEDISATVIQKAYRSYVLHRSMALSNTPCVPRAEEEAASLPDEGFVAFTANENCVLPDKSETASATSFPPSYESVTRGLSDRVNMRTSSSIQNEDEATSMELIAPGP
Experiment: E-VIPR optical membrane potential assay with electrical stimulation
Settings: HEK cells expressing human Nav1.8
Simple rule here: IC50 less than 100 nM is Condition met, otherwise Condition not met.

Consider the following illustrative entries.
O=C(Nc1cc[nH]c(=O)c1)c1cc(F)ccc1Oc1ccc(OCC2CC2)cc1 | Condition not met
Cn1cc(NC(=O)c2ccc(C(C)(C)C)cc2Oc2ccc(C(F)(F)F)nc2)ccc1=O | Condition not met
O=C(Nc1cc[nH]c(=O)c1)c1c(Oc2ccc(F)cc2F)cc(C(F)(F)F)cc1C(F)(F)F | Condition met

Take the compound O=C(Nc1cc[nH]c(=O)c1)c1ccc(C(F)(F)F)cc1OC1CC2CCC1C2 (stereo not shown) and say whether its IC50 is less than 100 nM.
Condition not met

Criterion: IC50 strictly below 100 nM. Is it met by "Cc1c[nH]c(=O)cc1NC(=O)c1ccc(C(F)(F)F)cc1Oc1ccc(F)cc1C" ?
Condition not met

Record "O=C(Nc1cc[nH]c(=O)c1)c1cc(C(F)(F)F)ccc1OCCCC(F)(F)F" : is its IC50 strictly below 100 nM?
Condition not met

hey, is IC50 for "COc1cc(F)ccc1Oc1cc(Cl)ccc1C(=O)Nc1cc[nH]c(=O)c1" lower than 100 nM or not?
Condition met

Take the compound "Cc1cc(F)ccc1Oc1ccc(Cl)cc1C(=O)Nc1cc[nH]c(=O)c1" and say whether its IC50 is less than 100 nM.
Condition met

Given the entry "O=C(Nc1cc[nH]c(=O)c1)c1cc(Cl)ccc1Oc1ccc(F)cc1F" , would its reported IC50 be below 100 nM?
Condition not met

Given the entry "CC1(COc2cc(C(F)(F)F)ccc2C(=O)Nc2cc[nH]c(=O)c2)CC1" , would its reported IC50 be below 100 nM?
Condition not met

Input "O=C(Nc1cc[nH]c(=O)c1)c1cc(C(F)(F)F)ccc1Oc1ccccc1OC(F)(F)F" ; condition: IC50 strictly below 100 nM. Does it hold?
Condition met

Report whether reported IC50 is lower than 100 nM (strictly) for "COCCc1ccc(Oc2ccc(F)cc2C(=O)Nc2cc[nH]c(=O)c2)cc1"
Condition not met

Dear reviewer, please state whether "O=C(Nc1cc[nH]c(=O)c1)c1ccc(C(F)(F)F)cc1O[C@@H]1C[C@H]2CCC1C2" has IC50 strictly beneath 100 nM.
Condition not met

Dear colleague, could you confirm whether IC50 of "O=C(Nc1cc[nH]c(=O)c1)c1cc(F)ccc1Oc1ccc(OCC(F)(F)F)cc1" falls below 100 nM? Thanks.
Condition not met

Dear colleague, could you confirm whether IC50 of "O=C(Nc1cc[nH]c(=O)c1)c1ccc(C(F)(F)F)cc1Oc1ccccc1" falls below 100 nM? Thanks.
Condition met

# strict comparison: is reported IC50 < 100 nM? input = "O=C(Nc1cc[nH]c(=O)c1)c1ccc(C(F)(F)F)cc1Oc1ccccc1OC(F)F"
Condition met

I'd appreciate it if you could check whether "O=C(Nc1cc[nH]c(=O)c1)c1cc(Cl)c(Cl)cc1Oc1ccc(F)cc1" has IC50 smaller than 100 nM.
Condition met

Lab note: confirm whether the reported IC50 for this compound is below 100 nM, equality not counting. compound: "Cn1ccc(NC(=O)c2ccc(C(C)(C)C)cc2Oc2ccc(C(F)(F)F)nc2)cc1=O"
Condition not met

Could you please tell me whether IC50 recorded for "O=C(Nc1cc[nH]c(=O)c1)c1ccc(C(F)(F)F)cc1OC1CCC1" is less than 100 nM?
Condition not met
